Experiment: AUC (0 to 48 hrs) in Sprague-Dawley rat at 6 mg/kg, IG measured HPLC analysis
Format: ADME, organism-based
Parameters: time < 48 hr, dose 6 mg/kg, route ig
Settings: in vivo, po

| cpd-smiles | AUC(0-t) at 48 h |
| --- | --- |
| O=C(Nc1ccc(C(F)(F)F)cc1)Nc1cccc(CNc2nccnc2Cl)c1 | 30800 ng·h/mL |

###

Assay: Clearance in Sprague-Dawley rat at 12 mg/kg, IG measured HPLC analysis
Assay type: ADME, organism-based
Settings: in vivo, po
Item-by-item account of CL/F

| cpd-smiles | CL/F [mL/min] |
| --- | --- |
| CNC(=O)c1cc(Oc2ccc(NC(=O)Nc3ccc(Cl)c(C(F)(F)F)c3)c(F)c2)ccn1 | 0.986 |
| O=C(Nc1ccc(C(F)(F)F)cc1)Nc1cccc(CNc2nccnc2Cl)c1 | 0.659 |
